- System: ATP;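 also: ATP exposure 15 min at 22 °C before imaging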
- procedure.summary: switch fluorescence ratio, 500 uM ATP over buffer (Cy3 cluster intensity, sum of 5 cycles each) (fold (ratio)); higher = stronger signal-on switching upon ATP binding; sequences stand for … in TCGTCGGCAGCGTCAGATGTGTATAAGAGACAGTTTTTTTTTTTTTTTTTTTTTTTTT…TC
- assay.conditions: aptamer strand: ATP DNA aptamer (quencher-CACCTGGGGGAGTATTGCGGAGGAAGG + anchor), 100 nM annealed; ATP concentration: 500 uM
result.type: switch fluorescence ratio
Number, no unit, nothing else.

Some sequences with known switch fluorescence ratio results, for comparison:
> print(dat)
   construct.sequence  target.under.test  measured
1          AAAAAATTTA                ATP     0.996
2          GGCTGGGAGG                ATP      0.99
3          TTAAATAATT                ATP     0.992
4          CTCGGTTAGG                ATP     0.982
5          TAATGCGATG                ATP     0.985

Query: switch fluorescence ratio; subject: GATGTCTCGA 0.982

Query: switch fluorescence ratio; subject: GGGTATAGTT 0.992

Query: switch fluorescence ratio; subject: GATTTTGTAC 1.01

Query: switch fluorescence ratio; subject: AACGACGGGG 1.01

Query: switch fluorescence ratio; subject: ACTGGTGGTG 0.978

Query: switch fluorescence ratio; subject: TATGTAGGGC 1.02

Query: switch fluorescence ratio; subject: GAGTGTTCGG 0.988

Query: switch fluorescence ratio; subject: GCGCTGGTTT 0.99

Query: switch fluorescence ratio; subject: GTAGGACTGC 1.01

Query: switch fluorescence ratio; subject: GGATATAAAT 0.972

Query: switch fluorescence ratio; subject: CGAAGTTTTT 0.998

Query: switch fluorescence ratio; subject: ATCATAATCT 1.01

Query: switch fluorescence ratio; subject: AGCATGTCGT 1.01

Query: switch fluorescence ratio; subject: ATATCCTAGT 0.987

Query: switch fluorescence ratio; subject: AGTACTGTGG 0.996

* * *

Quick reference: switch fluorescence ratio of the listed items.
- Tested on: ATP;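 also: ATP exposure 15 min at 22 °C before imaging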
- procedure.summary: switch fluorescence ratio, 500 uM ATP over buffer (Cy3 cluster intensity, sum of 5 cycles each) (fold (ratio)); higher = stronger signal-on switching upon ATP binding; sequences stand for … in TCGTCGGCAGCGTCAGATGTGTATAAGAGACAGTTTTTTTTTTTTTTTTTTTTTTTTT…TC
- assay.conditions: aptamer strand: ATP DNA aptamer (quencher-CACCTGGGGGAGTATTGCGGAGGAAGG + anchor), 100 nM annealed; ATP concentration: 500 uM
Number, no unit, nothing else.

Some sequences with known switch fluorescence ratio results, for comparison:
> print(dat)
   construct.sequence                result.type  measured
1          TCTAGGGCAA  switch fluorescence ratio      1.66
2          GCTATTTGGA  switch fluorescence ratio     0.997
3          CAATATTACT  switch fluorescence ratio      1.01
4          GGCTCCAGCT  switch fluorescence ratio     0.978

Query: switch fluorescence ratio; subject: CTATGTGTGG 0.976

Query: switch fluorescence ratio; subject: GAAGTAAGTC 1.1

Query: switch fluorescence ratio; subject: CAGATATTGG 1.02

Query: switch fluorescence ratio; subject: CTTTGTGATA 1.04

Query: switch fluorescence ratio; subject: TTCAAAGGTG 1.41
